# Tgt: T1, LTα3 (soluble homotrimer) (UniProt P01374 35-205)
# T1 construct: Coated on ELISA plates at 1 or 5 ug/ml; also called LTa3
# T1 sequence (looked up): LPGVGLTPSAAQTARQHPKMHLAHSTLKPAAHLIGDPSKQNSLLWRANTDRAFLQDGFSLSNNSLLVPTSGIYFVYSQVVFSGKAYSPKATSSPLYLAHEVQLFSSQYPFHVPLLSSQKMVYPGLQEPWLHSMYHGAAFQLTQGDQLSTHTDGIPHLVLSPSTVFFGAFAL
# Protocol summary: ELISA on plate-coated LTα3 (1 or 5 ug/ml)

| Binder | binding result |
| --- | --- |
| LT108 (P4F2.2) (antibody, V domains shown, also called mAb LT108) VH: QVQLKQSGPGLVQPSQSLSITCTVSGFSLTDYGIHWIRQPPGKGLEWLGVIWSGGSTDHNAVFTSRLNISKDNSKSQVFFKMNSLEPDDTAMYYCARNRAYYRYEGGMDYWGQGTSVTVSS VL: DIKMTQSPSSMYASLGERVTITCKASQDINTYLNWFQQKPGKSPMTLIYRADRLLDGVPSRFSGSGSGQDYSLTISSLEDEDMGIYYCQQYDDFPLTFGAGTKLELK | no binding |
| A0D9 (antibody, V domains shown, Murine monoclonal antibody, kappa light chain; also called mAb A0D9; AOD9) VH: QVQLKQSGPGLVQPSQSLSITCTVSGFSLSTYGVHWVRQFPGKGLEWLGVIWRGGNTNYNAAFMSRLTISKDNSKSQVFFKMNSLQAKDTAIYYCVRNQIYDGYYDYAMDYWGQGTSVTVSS VL: DIKMTQSPSSMYASLGERVTITCKASQDINTYLNWLQQKPGKSPKTLIYRANRLVDGVPSRFSGRGSGQDYSLTISSLEYEDVGIYYCLHYDAFPWTFGGGTKLEIK | no binding |
